B1: TOR1AIP2 (parent)
chain: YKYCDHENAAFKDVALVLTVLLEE

Variants of: B1
Assay: protein stability index of a GFP-peptide fusion (GPS, HEK-293T) (PSI 1-6); higher = more stable;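 also: lentivirally expressed fusions sorted by FACS into six bins by GFP to DsRed ratio, PSI derived from sequencing read proportions per bin multiplied by bin number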
Conditions: c terminus: a fixed tail appended
Note to self: values exactly at 2 are t. So protein stability index at or above 2 is t, below is f.

[ask] State whether the measured protein stability index reaches 2, counting equality as reaching it, for YKYCDHENAAFKDVALVLTVLLED [E24D]
[reply] t

[ask] Now the same for YKYCDHENAWFKDVALVLTVLLEE [A10W]
[reply] t

[ask] Now the same for YKYCDHENAAFADVALVLTVLLEE [K12A]
[reply] t

[ask] Now the same for YKYCDHENAATKDVALVLTVLLEE [F11T]
[reply] f

[ask] Now the same for YKYCDHENAAHKDVALVLTVLLEE [F11H]
[reply] t

[ask] Now the same for YKYCDHENIAFKDVALVLTVLLEE [A9I]
[reply] t

[ask] Now the same for YKYCDHEQAAFKDVALVLTVLLEE [N8Q]
[reply] t

[ask] Now the same for HKYCDHENAAFKDVALVLTVLLEE [Y1H]
[reply] f

[ask] Now the same for YKYCDHENAAFKDRALVLTVLLEE [V14R]
[reply] f

[ask] Now the same for YKYCDHENAAFKDVALVLTVLLEA [E24A]
[reply] t

[ask] Now the same for YKYCDHENAAFKDVALVGTVLLEE [L18G]
[reply] t

[ask] Now the same for YKYCDHENAAFKGVALVLTVLLEE [D13G]
[reply] f

[ask] Now the same for YKYCDHENAAFKDVALVLTVGLEE [L21G]
[reply] f

[ask] Now the same for YKYCDHENNAFKDVALVLTVLLEE [A9N]
[reply] t

[ask] Now the same for YKYCDHENAAFKDVAWVLTVLLEE [L16W]
[reply] t

[ask] Now the same for YKYCDHINAAFKDVALVLTVLLEE [E7I]
[reply] t

[ask] Now the same for YKYCDHENAAFKDVALVLTSLLEE [V20S]
[reply] f

[ask] Now the same for YKYCDHNNAAFKDVALVLTVLLEE [E7N]
[reply] t

[ask] Now the same for YKYCDHENAAFKDVALQLTVLLEE [V17Q]
[reply] f

[ask] Now the same for YKYCDHENAAFKYVALVLTVLLEE [D13Y]
[reply] t

[ask] Now the same for YKSCDHENAAFKDVALVLTVLLEE [Y3S]
[reply] t

[ask] Now the same for YKYCDHENAAFKDVALVLTCLLEE [V20C]
[reply] t

[ask] Now the same for YKYCDHENAAFKDVALVLTVLLEK [E24K]
[reply] t

[ask] Now the same for YSYCDHENAAFKDVALVLTVLLEE [K2S]
[reply] t

[ask] Now the same for YKYCDHENAAFKDVALDLTVLLEE [V17D]
[reply] t

[ask] Now the same for YKYCDHENAAFKDTALVLTVLLEE [V14T]
[reply] f

[ask] Now the same for YKYCDHENAAFDDVALVLTVLLEE [K12D]
[reply] f

[ask] Now the same for YKYCDHENAAFKDEALVLTVLLEE [V14E]
[reply] f

[ask] Now the same for YKYCDHENAAFKDVALVLTVSLEE [L21S]
[reply] f

[ask] Now the same for YKYCDHSNAAFKDVALVLTVLLEE [E7S]
[reply] t

[ask] Now the same for YKYCDHENAAFKDVAEVLTVLLEE [L16E]
[reply] f

[ask] Now the same for YKYCDHENAAFKDVALVLTVPLEE [L21P]
[reply] f

[ask] Now the same for YKYCDHENAAFKDAALVLTVLLEE [V14A]
[reply] t

[ask] Now the same for YKYCDHENAAFKTVALVLTVLLEE [D13T]
[reply] t

[ask] Now the same for YKYCDHENAAFKDVALVYTVLLEE [L18Y]
[reply] f

[ask] Now the same for YKYCDHENAAFKDVALVCTVLLEE [L18C]
[reply] f
